assayed system: MRP (Homo sapiens)
Construct: Human promyelocytic leukemia HL-60/ADR cells, which express MRP; endogenous in cells; host or cells: HL-60/ADR human promyelocytic leukemia cells
Sequence (P33527 whole entry): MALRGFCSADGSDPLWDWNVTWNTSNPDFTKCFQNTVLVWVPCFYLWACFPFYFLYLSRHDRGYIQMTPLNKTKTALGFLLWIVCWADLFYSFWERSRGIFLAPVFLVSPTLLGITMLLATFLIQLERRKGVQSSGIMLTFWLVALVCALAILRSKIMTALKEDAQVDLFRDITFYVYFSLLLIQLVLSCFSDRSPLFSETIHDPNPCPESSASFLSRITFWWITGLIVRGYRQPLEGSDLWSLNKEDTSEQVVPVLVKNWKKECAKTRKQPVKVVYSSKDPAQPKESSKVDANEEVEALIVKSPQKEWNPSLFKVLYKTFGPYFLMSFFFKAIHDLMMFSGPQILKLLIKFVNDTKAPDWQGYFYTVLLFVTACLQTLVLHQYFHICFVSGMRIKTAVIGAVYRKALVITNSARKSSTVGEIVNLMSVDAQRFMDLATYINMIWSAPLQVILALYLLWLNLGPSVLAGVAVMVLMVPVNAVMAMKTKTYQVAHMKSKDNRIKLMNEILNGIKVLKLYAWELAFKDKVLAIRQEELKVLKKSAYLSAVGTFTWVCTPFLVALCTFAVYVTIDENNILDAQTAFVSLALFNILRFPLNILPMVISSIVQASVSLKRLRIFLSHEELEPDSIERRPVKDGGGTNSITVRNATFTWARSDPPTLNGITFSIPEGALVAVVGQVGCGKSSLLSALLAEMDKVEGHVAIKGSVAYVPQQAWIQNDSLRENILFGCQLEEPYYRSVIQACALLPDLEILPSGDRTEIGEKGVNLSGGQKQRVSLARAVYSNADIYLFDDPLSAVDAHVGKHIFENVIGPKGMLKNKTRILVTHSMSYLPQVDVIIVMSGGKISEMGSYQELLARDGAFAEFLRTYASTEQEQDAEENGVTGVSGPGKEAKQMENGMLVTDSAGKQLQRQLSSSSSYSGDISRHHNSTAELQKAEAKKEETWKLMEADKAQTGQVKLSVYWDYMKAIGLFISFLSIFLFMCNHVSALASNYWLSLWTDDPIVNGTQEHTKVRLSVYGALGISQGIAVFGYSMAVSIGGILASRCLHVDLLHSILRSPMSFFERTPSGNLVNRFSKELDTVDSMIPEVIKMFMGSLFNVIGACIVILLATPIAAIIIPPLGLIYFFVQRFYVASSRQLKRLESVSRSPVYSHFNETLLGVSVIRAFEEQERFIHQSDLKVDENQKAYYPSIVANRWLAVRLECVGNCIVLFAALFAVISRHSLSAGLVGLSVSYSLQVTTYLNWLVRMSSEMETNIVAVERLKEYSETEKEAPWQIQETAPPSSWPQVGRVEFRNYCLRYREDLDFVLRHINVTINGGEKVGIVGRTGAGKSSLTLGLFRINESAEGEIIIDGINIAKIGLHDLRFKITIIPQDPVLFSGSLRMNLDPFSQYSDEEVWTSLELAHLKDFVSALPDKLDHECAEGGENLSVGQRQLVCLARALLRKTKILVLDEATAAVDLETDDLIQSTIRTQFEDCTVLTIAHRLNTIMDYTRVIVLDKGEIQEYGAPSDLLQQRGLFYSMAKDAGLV
test name: Reversal of MRP-mediated MDR: potentiation of vincristine cytotoxicity toward HL-60/ADR cells
Assay type: cell-based
condition context: chemosensitizing score on a scale of 0-5 (best activity=5; equal or superior to verapamil = 4, 4.5 or 5); HL-60/ADR cells, 2 nM vincristine, 48 h
measurement type: MRP antagonism

> print(dat)
                                   molecule  readout.value
1  COc1cc(C2CC3CCC2NC3)cc(OC)c1OC (centres unmarked) [Compound I-4]              2
2  COc1cc(C2CC3CCC2N(Cc2ccccc2)C3)cc(OC)c1OC (centres unmarked)              4
3  Oc1ccc(C2(O)CC3CCC2N(Cc2ccccc2)C3)cc1O (centres unmarked)            1.5
4  CCN1CC2CCC1C(Nc1ccccc1)C2 (centres unmarked)              1
5  OC1CC2CCC1N(Cc1ccccc1)C2 (centres unmarked)              0
6  COc1cc(C2CC3CCC2NC3)cc(OC)c1OC (centres unmarked) [Compound I-5]              4
7  COc1cc(C2(O)CC3CCC2N(Cc2ccccc2)C3)cc(OC)c1OC (centres unmarked)              3
8  OC1(c2ccc(OCc3ccccc3)c(OCc3ccccc3)c2)CC2CCC1N(Cc1ccccc1)C2 (centres unmarked)              0

###

test name: in vitro
condition context: human, mcf-7 cells, Cytotoxicity (% killed at 10 μg/ml)
measurement type: cytotoxicity at 48 h (%)

> print(dat)
                                   molecule  units.of.measure  readout.value
1  CCN1CC2CCC1C(Nc1ccccc1)C2 (centres unmarked) [Compound I-7]                 %             26
2  OC1CC2CCC1N(Cc1ccccc1)C2 (centres unmarked) [Compound I-9]                 %              0

###

test name: Intrinsic cytotoxicity of the compounds toward drug-sensitive MCF-7 cells (sulforhodamine B binding assay)
condition context: human, Cytotoxicity (% killed at 10 μg/ml)
measurement type: cytotoxicity at 48 h (%)

> print(dat)
                                   compound  units.of.measure  readout.value
1  Oc1ccc(C2(O)CC3CCC2N(Cc2ccccc2)C3)cc1O (centres unmarked)                 %             21
2  COc1cc(C2CC3CCC2N(Cc2ccccc2)C3)cc(OC)c1OC (centres unmarked)                 %             22
3  CN1CC2CCC1C(=O)C2=C(c1ccccc1)c1ccccc1 (centres unmarked)                 %              8
4  OC1(c2ccc(OCc3ccccc3)c(OCc3ccccc3)c2)CC2CCC1N(Cc1ccccc1)C2 (centres unmarked)                 %              0
5  COc1cc(C2(O)CC3CCC2N(Cc2ccccc2)C3)cc(OC)c1OC (centres unmarked)                 %             39

Source listed as patent US6248752A.
